# target_or_system: cKit(D816H)(h) (Homo sapiens, UniProt P10721, D816H)
# protocol: Kinase Profiling Assay
# Type: biochemical
# recorded_conditions: peptide 100 μM
quantity_name: % activity (%)
Numeric answer only, unit % assumed.

## Task Give the value of % activity reported for the following: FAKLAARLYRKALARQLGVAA [MMI-0300]
## Result 126

----------
In this section we review reported % activity values for a set of sequences.
# target_or_system: GCK(h) (Homo sapiens, UniProt Q12851)
# Construct: purchased Millipore
# Sequence (Q12851 1-820): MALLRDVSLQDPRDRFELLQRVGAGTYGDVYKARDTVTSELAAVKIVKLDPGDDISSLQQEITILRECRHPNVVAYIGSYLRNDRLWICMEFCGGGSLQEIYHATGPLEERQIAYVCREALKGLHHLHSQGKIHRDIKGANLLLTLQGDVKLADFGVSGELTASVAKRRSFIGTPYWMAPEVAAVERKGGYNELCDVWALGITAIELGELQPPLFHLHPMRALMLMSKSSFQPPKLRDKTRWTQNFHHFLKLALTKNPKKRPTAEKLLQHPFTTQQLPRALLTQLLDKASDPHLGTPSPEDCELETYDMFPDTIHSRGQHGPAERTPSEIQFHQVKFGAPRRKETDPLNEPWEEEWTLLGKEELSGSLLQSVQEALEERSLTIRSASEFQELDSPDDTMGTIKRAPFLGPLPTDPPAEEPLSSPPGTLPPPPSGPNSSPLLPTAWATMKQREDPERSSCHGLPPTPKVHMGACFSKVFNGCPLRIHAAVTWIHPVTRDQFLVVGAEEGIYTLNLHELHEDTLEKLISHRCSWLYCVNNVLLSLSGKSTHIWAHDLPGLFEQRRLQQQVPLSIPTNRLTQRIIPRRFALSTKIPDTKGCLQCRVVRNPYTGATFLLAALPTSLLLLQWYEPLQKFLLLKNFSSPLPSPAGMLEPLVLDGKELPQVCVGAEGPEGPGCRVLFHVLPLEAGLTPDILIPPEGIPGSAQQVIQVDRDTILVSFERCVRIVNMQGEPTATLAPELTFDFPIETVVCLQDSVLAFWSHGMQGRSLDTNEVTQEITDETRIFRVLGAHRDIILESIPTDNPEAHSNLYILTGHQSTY
# protocol: Kinase Profiling Assay
# Assay type: biochemical
# recorded_conditions: peptide 100 μM
# Description: Every kinase activity measurement was conducted in duplicate. Specifically, in these assays, a positively charged substrate is phosphorylated with a radiolabeled phosphate group from an ATP if the kinase is not inhibited by an inhibitor peptide. The positively charged substrate then is attracted to a negatively charged filter membrane, quantified with a scintillation counter, and compared to a 100% activity control. […]
No end group written: not given here.
Numeric answer only, unit % assumed.

# example entries with known answers
- sequence_string: "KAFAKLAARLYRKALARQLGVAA [MMI-0400]"
  unit_of_measurement: "%"
  % activity: 66
- sequence_string: "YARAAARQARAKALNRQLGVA (Mammal) [MMI-0200]"
  unit_of_measurement: "%"
  % activity: 99
- sequence_string: "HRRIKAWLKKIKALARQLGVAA (Mammal) [MMI-0500]"
  unit_of_measurement: "%"
  % activity: 30
- sequence_string: "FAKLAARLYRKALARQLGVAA [MMI-0300]"
  unit_of_measurement: "%"
  % activity: 70

Consider the record given below.
## Task Give the value of % activity reported for the following: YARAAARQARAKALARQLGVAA [MMI-0100]
## Result 98
